Entries and their Test Example 4: Rate of CYP2D6 Contribution values follow.
# MEASURED ON: CYP2D6 (Homo sapiens)
# Construct: Pooled of Human Liver Microsomes was purchased from Xenotech, LLC; tissue Xenotech, LLC; host or cells: pooled human liver microsomes
# Sequence (P10635 whole entry): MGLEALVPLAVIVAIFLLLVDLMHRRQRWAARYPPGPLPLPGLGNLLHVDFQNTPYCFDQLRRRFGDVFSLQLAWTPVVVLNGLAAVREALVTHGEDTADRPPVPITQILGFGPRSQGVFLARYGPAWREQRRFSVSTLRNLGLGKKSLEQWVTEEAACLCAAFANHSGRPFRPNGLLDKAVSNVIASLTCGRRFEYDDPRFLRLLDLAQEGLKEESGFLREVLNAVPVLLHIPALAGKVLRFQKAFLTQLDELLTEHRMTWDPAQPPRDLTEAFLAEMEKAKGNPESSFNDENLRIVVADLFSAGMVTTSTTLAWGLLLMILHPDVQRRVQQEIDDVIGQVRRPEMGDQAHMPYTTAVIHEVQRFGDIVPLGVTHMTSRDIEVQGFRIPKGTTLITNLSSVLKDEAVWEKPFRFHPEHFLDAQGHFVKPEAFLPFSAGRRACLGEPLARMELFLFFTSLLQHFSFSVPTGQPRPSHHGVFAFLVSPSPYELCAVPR
# TEST NAME: Screening test of the rate of CYP2D6 contribution in human liver microsomal metabolism
# Type: in vitro ADME
# MEASUREMENT CONDITIONS: 1 mg/mL human liver microsomes, 1 μM test substance, with/without quinidine 4 μM, 37° C.

Would you please look over these solved cases?
[
  {
    "QUERY SMILES": "COCCOc1cc(Br)cc(CC2CCN(CCc3ccc4c(c3)C(=O)CCC4)CC2)c1",
    "RESULT": "9.2%"
  },
  {
    "QUERY SMILES": "COCCOc1cc(CC2CCN(CCc3ccc4c(c3)C(=O)CCC4)CC2)ccc1Br",
    "RESULT": "12%"
  },
  {
    "QUERY SMILES": "COCCOc1cc(CC2CCN(CCc3ccc4c(c3)C(=O)CCO4)CC2)ccc1Cl",
    "RESULT": "54%"
  }
]

Input line: Test Example 4: Rate of CYP2D6 Contribution lookup needed for COCCOc1cc(CC2CCN(CCc3ccc4c(c3)C(=O)CCCO4)CC2)ccc1Br , thanks.
Output line: 4.2%
